SUBJECT OF TEST: T1, RBFOX1 RRM (Homo sapiens, UniProt Q9NWB1 109-208)
T1 sequence: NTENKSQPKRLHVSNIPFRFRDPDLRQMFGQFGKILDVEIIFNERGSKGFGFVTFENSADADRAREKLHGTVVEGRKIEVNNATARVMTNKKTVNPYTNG
PROCEDURE DETAILS: EMSA; HiTS-Eq, 1 nM pool, 10 min; buffer printed only for the single-RNA assays: 10 mM Tris pH 7.5, 150 mM NaCl, 3.4 mM EDTA, 0.001% NP-40, 30 C
CONDITION: tags: His6 N-terminal (pET28a); label: 5' 32P
The full ranking holds about 16,000 sequences; the median of “ka relative to ugcaugu” is about 0.0091, and the highest 2% start at about 0.032. Only a selection was taken, and the highest values are over-represented in it overall.
METRIC: binding signal

The examples below pair each entry with its known result.
INSERT INTO measurements (binder, metric, result) VALUES
  ('UCUAACG (DNA:RNA) RNA: GGGAGACCGGAAUUCAGAUUGUCCUCUAACGUUAAAUCCCGUCGUAGCCACCA DNA 1: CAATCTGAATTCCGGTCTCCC DNA 2: TGGTGGCTACGACGGGATT', 'binding signal', '0.00601 KA relative to UGCAUGU'),
  ('GACACAG (DNA:RNA) RNA: GGGAGACCGGAAUUCAGAUUGUCCGACACAGUUAAAUCCCGUCGUAGCCACCA DNA 1: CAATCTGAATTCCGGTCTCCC DNA 2: TGGTGGCTACGACGGGATT', 'binding signal', '0.00906 KA relative to UGCAUGU'),
  ('ACUUACA (DNA:RNA) RNA: GGGAGACCGGAAUUCAGAUUGUCCACUUACAUUAAAUCCCGUCGUAGCCACCA DNA 1: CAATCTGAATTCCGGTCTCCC DNA 2: TGGTGGCTACGACGGGATT', 'binding signal', '0.00166 KA relative to UGCAUGU'),
  ('GAUACGC (DNA:RNA) RNA: GGGAGACCGGAAUUCAGAUUGUCCGAUACGCUUAAAUCCCGUCGUAGCCACCA DNA 1: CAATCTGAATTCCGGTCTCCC DNA 2: TGGTGGCTACGACGGGATT', 'binding signal', '0.012 KA relative to UGCAUGU'),
  ('AAAUGGU (DNA:RNA) RNA: GGGAGACCGGAAUUCAGAUUGUCCAAAUGGUUUAAAUCCCGUCGUAGCCACCA DNA 1: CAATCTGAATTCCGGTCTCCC DNA 2: TGGTGGCTACGACGGGATT', 'binding signal', '0.00783 KA relative to UGCAUGU');

Inquiry: Return reported binding signal; argument: CCUGUAG (DNA:RNA) RNA: GGGAGACCGGAAUUCAGAUUGUCCCCUGUAGUUAAAUCCCGUCGUAGCCACCA DNA 1: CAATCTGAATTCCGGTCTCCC DNA 2: TGGTGGCTACGACGGGATT
Reply text: 0.00969 KA relative to UGCAUGU

Inquiry: And the next one, GAACUGU (DNA:RNA) RNA: GGGAGACCGGAAUUCAGAUUGUCCGAACUGUUUAAAUCCCGUCGUAGCCACCA DNA 1: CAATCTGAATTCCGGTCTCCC DNA 2: TGGTGGCTACGACGGGATT ?
Reply text: 0.0163 KA relative to UGCAUGU

Inquiry: And the next one, GAGGAUC (DNA:RNA) RNA: GGGAGACCGGAAUUCAGAUUGUCCGAGGAUCUUAAAUCCCGUCGUAGCCACCA DNA 1: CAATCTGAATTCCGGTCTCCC DNA 2: TGGTGGCTACGACGGGATT ?
Reply text: 0.0149 KA relative to UGCAUGU

Inquiry: And the next one, CAGGAGG (DNA:RNA) RNA: GGGAGACCGGAAUUCAGAUUGUCCCAGGAGGUUAAAUCCCGUCGUAGCCACCA DNA 1: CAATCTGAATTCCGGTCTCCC DNA 2: TGGTGGCTACGACGGGATT ?
Reply text: 0.00882 KA relative to UGCAUGU
